For each record, write down the corresponding GI50.
- Test system: A549 NSCLC
- experimental details: NCI tumour cell line growth inhibition, 48 h

List reported GI50 for each of these compounds:
1. COc1ccc(C(CC(=O)c2ccccc2)C(C(=O)c2ccccc2)C(c2ccc(OC)cc2)C2C(=O)NC(=S)NC2=O)cc1 (stereo not drawn)
2. O=C(C[P+](c1ccccc1)(c1ccccc1)c1ccccc1)C[P+](c1ccccc1)(c1ccccc1)c1ccccc1
3. COc1ccc(N(/C=C/C(=O)C(F)(F)F)CC(=O)c2ccc(Cl)cc2)cc1
4. CCS(=O)(=O)c1ccc(OC)c(Nc2ncc(-c3ccccc3Cl)o2)c1
5. O=C(N/N=C/c1cc(Cl)cc(Cl)c1[O-])c1ccccc1.O=C(N/N=C/c1cc(Cl)cc(Cl)c1[O-])c1ccccc1.[Co+2]
6. O=c1oc2ccc(-c3ccc(F)cc3F)cc2c(=O)n1-c1ccc(Cl)c(C(F)(F)F)c1
7. C#COc1cccc(Nc2ncnc3cc(NC(=O)[C@H](C)Cl)ccc23)c1
8. NC(=Nc1ccc(N)cc1)C(N)=Nc1ccc(N)cc1

Ans:
8.96 µM
0.81 µM
29.6 µM
10 µM
28.8 µM
3.33 µM
3.18 µM
> 100 µM

###

For each record, write down the corresponding TGI.
- System: IGROV1 ovarian
- experimental details: NCI tumour cell line growth inhibition, 48 h

List reported TGI for each of these compounds:
1. C=C1C(=O)O[C@H]2[C@H]1CC/C(COC(=O)NCCc1c[nH]c3ccc(Cl)cc13)=C\CC[C@@]1(C)O[C@@H]21
2. O=C(C/C(CCC(=O)N(Cc1ccccc1)Cc1ccccc1)=N/Nc1ccc([N+](=O)[O-])cc1[N+](=O)[O-])c1ccccc1
3. O=C(Nc1ccccc1O)c1ccc(NS(=O)(=O)c2cccc3cccnc23)cc1
4. Cc1cc(=O)[nH]c(CNC(=O)c2cccc(C(=O)NCc3cc(=O)[nH]c(C)n3)c2)n1
5. S=C(N1CCN(c2cccc(Cl)c2)CC1)N1CCN(c2cccc(Cl)c2)CC1
6. CN1CCN(Cc2ccc3c(NNC(=O)c4ccccc4)nc4cc(F)ccc4n23)CC1
7. COc1cc(/C=C/c2cc(/C=C/c3ccc(O)c(OC)c3)n(C(=O)Nc3ccc(Cl)cc3)n2)ccc1O
8. NC1Cc2ccccc2OC1=O (stereo not drawn)

Ans:
1. 3.11 µM
2. > 100 µM
3. 9.95 µM
4. > 100 µM
5. > 100 µM
6. 49.2 µM
7. 4.66 µM
8. > 100 µM

###

- System: SK-OV-3 ovarian
- experimental details: NCI tumour cell line growth inhibition, 48 h
quantity measured: GI50

- smiles str: "COc1ccc(Nc2nc3cc(N)cc(N)c3nc2-c2ccccc2)cc1OC"
  GI50: "38.2 µM"
- smiles str: "C=C1C(=O)O[C@H]2[C@H]1CC/C(COC(=O)NCCc1c[nH]c3ccc(Cl)cc13)=C\\CC[C@@]1(C)O[C@@H]21"
  GI50: "13.2 µM"
- smiles str: "ClCc1cccc(CSc2ncnc3c2ncn3Cc2cccc(CCl)c2)c1"
  GI50: "2.3 µM"
- smiles str: "CN1CCN(Cc2ccc3c(NNC(=O)c4ccccc4)nc4cc(F)ccc4n23)CC1"
  GI50: "0.371 µM"
- smiles str: "COc1cc(NCCN=C(N)NC(N)=NC(C)C)c2ncccc2c1"
  GI50: "48.8 µM"
- smiles str: "CN(C)c1ccc(/C=c2/c3ccccc3n3c2c2cc(F)ccc2[n+]3C)cc1"
  GI50: "34.1 µM"
- smiles str: "COc1ccc(Cn2cc3c(c2-c2ccccc2)CCc2cnoc2-3)cc1N"
  GI50: "0.252 µM"
- smiles str: "O=c1cc(-c2ccccc2)oc2cc(OC/C(=N/O)c3ccc(F)cc3)ccc12"
  GI50: "47.9 µM"

Q: Name the recorded GI50 for "C[C@@H]1COCCN1c1cc(C2([S@@](C)(=N)=O)CC2)nc(-c2ccnc3[nH]ccc23)n1" .
Ans: 2.95 µM

###

- Test system: HCC-2998 colon
- experimental details: NCI tumour cell line growth inhibition, 48 h
quantity measured: TGI

Below, 5 compounds whose answers are already recorded.
- compound: "COc1ccc(Nc2nc3cc(N)cc(N)c3nc2-c2ccccc2)cc1OC"
  TGI: "39.6 µM"
- compound: "O=C(Nc1cc(Oc2cc(F)c(NC(=O)C3(C(=O)Nc4ccc(F)cc4)CC3)cc2F)ccn1)C1CC1"
  TGI: "> 29.4 µM"
- compound: "COc1cc2ccc1OCc1cccc(n1)COc1ccc(cc1OC)C=NCCNCCNCCN=C2"
  TGI: "> 100 µM"
- compound: "ClCc1cccc(CSc2ncnc3c2ncn3Cc2cccc(CCl)c2)c1"
  TGI: "3.13 µM"
- compound: "C=CCCCCOC1C=CC(O)C(CO)O1 (stereo not given)"
  TGI: "> 100 µM"

List reported TGI for each of these compounds:
1. O=C1c2ccccc2C(=O)c2c(NCC3CO3)ccc(NCC3CO3)c21 (stereo not given)
2. CCCN1C(=O)/C(=C\c2ccc(OC)c(OC)c2)SC1=Nc1ccccc1
3. CCOC(=O)c1c(N2CCCC2)ncn(C)c1=S
4. Cc1ccc(NC(=O)/C(=N/N(C)C)C(C2OC(=O)c3ccccc32)[N+](=O)[O-])cc1 (stereo not given)
5. N#Cc1c(-c2ccc(Cl)cc2)c2c(N=Nc3c(O)ccc4ccccc34)[nH]nc2[nH]c1=O

Ans:
1. > 81.4 µM
2. > 100 µM
3. > 100 µM
4. > 100 µM
5. 0.89 µM

###

- System: MDA-N
- experimental details: NCI tumour cell line growth inhibition, 48 h
For each record, write down the corresponding TGI.

Below, 5 molecules whose answers are already recorded.
- molecule: "N#C/C(N)=C(\\C#N)N=CNc1ccc(N)cc1"
  TGI: "> 100 µM"
- molecule: "Cn1c(=S)c2[nH]c(SCCN3C(=O)c4ccccc4C3=O)nc2n(C)c1=O"
  TGI: "> 100 µM"
- molecule: "O=C(NNS(=O)(=O)c1ccccc1)c1cccnc1"
  TGI: "> 100 µM"
- molecule: "Nc1ccc(-c2nc3ccccc3s2)cc1C#Cc1ccccc1"
  TGI: "35.8 µM"
- molecule: "C=CCOc1ccccc1C1(O)c2ccccc2C2=NCCCN21 (stereo unspecified)"
  TGI: "> 100 µM"

List reported TGI for each of these molecules:
1. C=CCCCCOC1C=CC(O)C(CO)O1 (stereo unspecified)
2. COc1ccc2c3c1OC1C34CCN(C)C(C2)C4=CC(I)C1(OC)OC (stereo unspecified)
3. CCOC(=O)C(O)(C(=O)OCC)c1cc(C(C)(C)C)c(O)c(C(C)(C)C)c1
4. COC(=O)[C@@H]1CC(C(CN)c2cn(C(=O)OC(C)(C)C)c3ccccc23)C(=O)N1C(=O)OC(C)(C)C (stereo partly specified)
5. COc1ccccc1NCc1cccc2c(=O)c3ccc(Cl)cc3oc12
6. Cc1cccc2c(N)c3cccc(C(=O)NCC[N+]4(Cc5ccc([N+](=O)[O-])cc5)CCOCC4)c3nc12

Ans:
1: > 100 µM; 2: 18.8 µM; 3: > 100 µM; 4: 69.6 µM; 5: > 100 µM; 6: > 100 µM

###

For each record, write down the corresponding TGI.
- System: OVCAR-4 ovarian
- experimental details: NCI tumour cell line growth inhibition, 48 h

Below, 5 molecules whose answers are already recorded.
- molecule: "O=c1[nH]c(=O)n(C2OC(CO)C(O)C2O)cc1OCC(F)(F)F (configuration not stated)"
  value measured: "> 100 µM"
- molecule: "COc1cccc(/C(C)=N/NC(=O)CSc2nc3ccccc3c(=O)n2CCc2ccc(S(N)(=O)=O)cc2)c1"
  value measured: "4.28 µM"
- molecule: "COc1cccc2c1C(=O)OC2c1cccc2ccccc12 (configuration not stated)"
  value measured: "> 88.7 µM"
- molecule: "CC1=C[C@H]2C[C@H](C)[C@H]3CC[C@H](C)[C@]4(C1)C(=O)C(O)=C(C)C(=O)[C@@]324"
  value measured: "> 100 µM"
- molecule: "COc1cc(NCCN=C(N)NC(N)=NC(C)C)c2ncccc2c1"
  value measured: "1.23 µM"

List reported TGI for each of these molecules:
1. Cc1nc2[nH]ncn2c(=O)c1CCO
2. O=C1C2C3C=C4c5ccccc5N(c5ccccc5)C4(C2C(=O)N1c1ccc(Br)cc1)[C@H]1C(=O)N(c2ccc(Br)cc2)C(=O)[C@@H]31 (some centres not stated)
3. C[N+]1(CCC[N+]2(C)CC3C4C=CC(CC4)C3C2)CCOCC1 (configuration not stated)
4. Cc1c(C(N)=O)sc2c1c(=O)n(Cc1ccccc1)c1nnc(-c3ccc(Br)cc3)n21
5. Nc1ccccc1C#C/C=C\C#Cc1c(F)c(F)c(F)c(F)c1F

Ans:
> 10 µM
> 100 µM
> 100 µM
15.8 µM
96 µM

List reported TGI for each of these molecules:
1. Clc1ccccc1C(Nc1ncccn1)Nc1ncccn1
2. O=S(=O)(/N=C(\NO)Nc1ccc(Cl)cc1)c1ccccc1
3. O=c1oc2ccc(-c3ccc(F)cc3F)cc2c(=O)n1-c1ccc(Cl)c(C(F)(F)F)c1
4. O=C(NNS(=O)(=O)c1ccccc1)c1cccnc1
5. Cc1ccc(NC(=O)/C(=N/N(C)C)C(C2OC(=O)c3ccccc32)[N+](=O)[O-])cc1 (configuration not stated)
6. C=CCOc1ccccc1C1(O)c2ccccc2C2=NCCCN21 (configuration not stated)
7. Nc1nc(N)c2cc(Sc3cccc(C(F)(F)F)c3)ccc2n1

Ans:
> 100 µM
> 61.2 µM
> 100 µM
> 100 µM
> 100 µM
> 100 µM
18.6 µM

List reported TGI for each of these molecules:
1. O=C(Nc1cccc2ccccc12)c1ccccc1
2. Nc1nc(=O)n([C@@H]2CS[C@H](CO)O2)cc1F

Ans:
1. > 100 µM
2. > 100 µM

List reported TGI for each of these molecules:
1. NC(=Nc1ccc(N)cc1)C(N)=Nc1ccc(N)cc1
2. COc1cc(C2c3cc4c(cc3[C@@H](Oc3ccc(F)cc3)C3COC(=O)[C@H]23)OCO4)cc(OC)c1O (some centres not stated)
3. CC[P+]1(c2ccccc2)[C@@H](C)CC[C@@H]1C

Ans:
1. > 100 µM
2. > 100 µM
3. > 100 µM
